- tested on: SMARCA2 (Homo sapiens)
- Sequence (P51531 whole entry): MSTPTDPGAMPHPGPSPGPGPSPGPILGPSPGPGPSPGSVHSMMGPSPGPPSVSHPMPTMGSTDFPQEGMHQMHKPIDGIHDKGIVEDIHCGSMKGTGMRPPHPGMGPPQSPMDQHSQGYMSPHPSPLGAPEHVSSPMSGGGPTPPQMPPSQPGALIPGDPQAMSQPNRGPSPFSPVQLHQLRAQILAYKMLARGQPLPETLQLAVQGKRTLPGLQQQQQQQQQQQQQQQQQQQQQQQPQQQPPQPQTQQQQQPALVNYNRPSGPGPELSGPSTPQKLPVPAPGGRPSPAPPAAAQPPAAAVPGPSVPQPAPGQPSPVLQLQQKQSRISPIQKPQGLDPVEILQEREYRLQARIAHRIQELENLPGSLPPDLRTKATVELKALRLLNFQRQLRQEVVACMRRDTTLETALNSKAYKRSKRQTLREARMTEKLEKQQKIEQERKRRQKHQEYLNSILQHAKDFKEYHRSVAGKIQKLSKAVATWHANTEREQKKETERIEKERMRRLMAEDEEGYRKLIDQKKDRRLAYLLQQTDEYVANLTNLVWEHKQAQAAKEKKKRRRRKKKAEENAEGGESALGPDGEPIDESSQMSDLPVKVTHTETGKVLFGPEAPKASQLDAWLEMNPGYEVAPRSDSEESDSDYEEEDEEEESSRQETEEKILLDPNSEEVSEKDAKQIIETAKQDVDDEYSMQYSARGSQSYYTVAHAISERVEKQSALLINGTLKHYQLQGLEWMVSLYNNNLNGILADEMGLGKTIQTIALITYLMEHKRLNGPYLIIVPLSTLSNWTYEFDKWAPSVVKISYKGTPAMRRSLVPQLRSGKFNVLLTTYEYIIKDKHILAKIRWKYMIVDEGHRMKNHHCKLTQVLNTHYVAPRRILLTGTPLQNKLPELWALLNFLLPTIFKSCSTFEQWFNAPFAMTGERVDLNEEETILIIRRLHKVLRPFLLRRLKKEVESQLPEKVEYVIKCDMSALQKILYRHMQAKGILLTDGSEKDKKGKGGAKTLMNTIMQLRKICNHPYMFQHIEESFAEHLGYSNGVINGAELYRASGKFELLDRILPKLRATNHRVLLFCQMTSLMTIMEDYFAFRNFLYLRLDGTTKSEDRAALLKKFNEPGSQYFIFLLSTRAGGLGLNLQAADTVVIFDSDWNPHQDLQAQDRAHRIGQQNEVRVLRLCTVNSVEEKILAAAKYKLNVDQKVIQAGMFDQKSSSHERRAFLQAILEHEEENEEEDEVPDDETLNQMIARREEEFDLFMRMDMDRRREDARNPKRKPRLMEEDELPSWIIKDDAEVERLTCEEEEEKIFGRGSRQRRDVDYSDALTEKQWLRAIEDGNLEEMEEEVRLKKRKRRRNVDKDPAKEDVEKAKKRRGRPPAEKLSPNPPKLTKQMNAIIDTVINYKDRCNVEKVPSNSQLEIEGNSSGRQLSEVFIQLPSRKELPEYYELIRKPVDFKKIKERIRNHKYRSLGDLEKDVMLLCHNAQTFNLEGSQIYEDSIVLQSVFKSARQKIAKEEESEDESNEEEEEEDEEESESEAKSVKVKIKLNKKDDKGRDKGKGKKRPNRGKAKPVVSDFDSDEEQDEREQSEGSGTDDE
- assay text: MSD SMARCA2 degradation in A549 cell line
- Format: cell-based
- assay context: A549 cells, 24 h, read-out: SMARCA2 MSD A549 degradation 24 h: Average external-Abs DC50
measurement type: DC50

Known results for compounds:
| compound | tested on | DC50 |
| --- | --- | --- |
| C#Cc1ccc([C@H](CO)NC(=O)[C@@H]2C[C@@H](O)CN2C(=O)[C@@H](NC(=O)N2CC3(CC(N4CCC(c5cnc(N6CCc7[nH]c8nnc(-c9ccccc9O)cc8c7[C@H]6C)nc5)CC4)C3)C2)C(C)(C)C)cc1 [I-168] | SMARCA2 (Homo sapiens) | < 10 nM |
| C#Cc1ccc(CNC(=O)[C@@H]2C[C@@H](O)CN2C(=O)[C@@H](NC(=O)N2CC3(CC(N4CCC(N5CC6(CC(N7CCc8[nH]c9nnc(-c%10ccccc%10O)cc9c8[C@H]7C)C6)C5)CC4)C3)C2)C(C)(C)C)cc1 [I-207] | SMARCA2 (Homo sapiens) | > 100 nM |
| Cc1ncsc1-c1ccc(CNC(=O)[C@@H]2C[C@@H](O)CN2C(=O)[C@@H](NC(=O)[C@H]2CC[C@H](c3ccc(-c4cnc(N5CCN6c7cc(-c8ccccc8O)nnc7NC[C@H]6C5)nc4)cc3)CC2)C(C)(C)C)cc1 [I-85] | SMARCA2 (Homo sapiens) | 50 to 100 nM |
| C#Cc1ccc(CNC(=O)[C@@H]2C[C@@H](O)CN2C(=O)[C@@H](NC(=O)N2CCN(C[C@H]3CC[C@H](N4CCC(N5CCN6c7cc(-c8ccccc8O)nnc7NC[C@H]6C5)CC4)CC3)CC2)C(C)(C)C)cc1 [I-254] | SMARCA2 (Homo sapiens) | 50 to 100 nM |
| C#Cc1ccc([C@H](C)NC(=O)[C@@H]2C[C@@H](O)CN2C(=O)[C@H](c2cc(OCCN3CCN4c5cc(-c6ccccc6O)nnc5NC[C@H]4C3)no2)C(C)C)cc1 (single isomer, unassigned) [I-272] | SMARCA2 (Homo sapiens) | > 100 nM |

Request: // returns reported DC50 for input C#Cc1ccc(CNC(=O)[C@@H]2C[C@@H](O)CN2C(=O)[C@@H](NC(=O)N2CC3(CC(N4CCC(c5cnc(N6CCc7[nH]c8nnc(-c9ccccc9O)cc8c7[C@H]6C)nc5)CC4)C3)C2)C(C)(C)CCN2CCN[C@@H](C(=O)O)C2)cc1 [I-342]
Response: > 100 nM

Request: // returns reported DC50 for input C#Cc1ccc(CNC(=O)[C@@H]2C[C@@H](O)CN2C(=O)[C@@H](NC(=O)C2CCC3(CC2)CC(N2CCC(N4CCC[C@H](C(=O)N5CCN6c7cc(-c8ccccc8O)nnc7NC[C@H]6C5)C4)CC2)C3)C(C)(C)C)cc1 (single isomer, unassigned) [I-90]
Response: > 100 nM

Request: // returns reported DC50 for input C#Cc1ccc(CNC(=O)[C@@H]2C[C@@H](O)CN2C(=O)[C@@H](NC(=O)N2CC3(CN(CC4CCN(c5cnc(N6CCc7[nH]c8nnc(-c9ccccc9O)cc8c7[C@@H]6C)nc5)CC4)C3)C2)C(C)(C)C)cc1 [I-165]
Response: > 100 nM

---

- tested on: SMARCA2 (Homo sapiens)
- assay text: SMARCA2 Western blot degradation in MV4-11 cells
- Assay type: cell-based
- Set-up: SMARCA2/SMARCA4 protein degradation selectivity in MV4-11 cells; endogenous in cells; host or cells: MV4-11
- assay context: MV4-11, MV4-11 cells, 24 h; read-out: SMARCA2 MSD MV411 degradation 24 h: average Dmax %
measurement type: Dmax

| compound | Dmax |
| --- | --- |
| C#Cc1ccc(CNC(=O)[C@@H]2C[C@@H](O)CN2C(=O)[C@@H](NC(=O)N2CC3(CC(N4CCC(c5cnc(N6CCc7[nH]c8nnc(-c9ccccc9O)cc8c7[C@H]6C)nc5)CC4)C3)C2)C(C)(C)C)c(OCCCC(=O)O)c1 [I-145] | > 90% |

Lab note: next compound to report on.
Request: API: value(readout=Dmax, system=SMARCA2 (Homo sapiens)) for record C#Cc1ccc(CNC(=O)[C@@H]2C[C@@H](O)CN2C(=O)[C@H](NC(=O)N2CC3(CC(N4CCC(c5cnc(N6CCc7[nH]c8nnc(-c9ccccc9O)cc8c7[C@H]6C)nc5)CC4)C3)C2)C(C)(C)CCO)c(Cl)c1 (single isomer, unassigned) [I-316]
Response: < 50%

---

- tested on: UniProt P51531
- assay text: SMARCA2 Western blot degradation in MV4-11 cells
- Format: cell-based
- Parameters: SMARCA2/SMARCA4 protein degradation selectivity in MV4-11 cells; endogenous in cells; host or cells: MV4-11
- assay context: MV4-11 cells, 24 h; read-out: SMARCA2 MSD MV411 degradation 24 h: Mean external-Abs DC50
The entries below come with measured DC50 values attached.

| molecule | tested on | DC50 |
| --- | --- | --- |
| C#Cc1ccc(CNC(=O)[C@@H]2C[C@@H](O)CN2C(=O)[C@@H](NC(=O)N2CC3(CC(N4CCC(c5cnc(N6CCc7[nH]c8nnc(-c9ccccc9O)cc8c7[C@H]6CC)nc5)CC4)C3)C2)C(C)(C)C)cc1 [I-136] | UniProt P51531 | 1 to 10 nM |
| Cc1ncsc1-c1ccc(CNC(=O)[C@@H]2C[C@@H](O)CN2C(=O)[C@@H](NC(=O)[C@H]2CC3(CC[C@H](N4CCC(c5cnc(N6CCN7c8cc(-c9ccccc9O)nnc8NC[C@H]7C6)nc5)CC4)CC3)C2)C(C)(C)C)cc1 (single isomer, unassigned) [I-66] | UniProt P51531 | 10 to 100 nM |
| C#Cc1cc(Cl)c(CNC(=O)[C@@H]2C[C@@H](O)CN2C(=O)[C@@H](NC(=O)[C@H]2CC3(C2)C[C@H](N2CCC(N4CCC(N5CCN6c7cc(-c8ccccc8O)nnc7NC[C@H]6C5)CC4)CC2)C3)C(C)(C)C)c(OC)c1 (single isomer, unassigned) [I-328] | UniProt P51531 | > 100 nM |

Request: // returns reported DC50 for input C#Cc1ccc(CNC(=O)[C@@H]2C[C@@H](O)CN2C(=O)[C@@H](NC(=O)c2ccc(N3CCC(N4CCC(N5CCN6c7cc(-c8ccccc8O)nnc7NC[C@H]6C5)CC4)CC3)cn2)C(C)(C)C)cc1 [I-292]
Response: 1 to 10 nM

---

- tested on: SMARCA4 (Homo sapiens)
- Construct: SMARCA2/SMARCA4 protein degradation selectivity in MV4-11 cells; endogenous in cells; host or cells: MV4-11
- Sequence (P51532 whole entry): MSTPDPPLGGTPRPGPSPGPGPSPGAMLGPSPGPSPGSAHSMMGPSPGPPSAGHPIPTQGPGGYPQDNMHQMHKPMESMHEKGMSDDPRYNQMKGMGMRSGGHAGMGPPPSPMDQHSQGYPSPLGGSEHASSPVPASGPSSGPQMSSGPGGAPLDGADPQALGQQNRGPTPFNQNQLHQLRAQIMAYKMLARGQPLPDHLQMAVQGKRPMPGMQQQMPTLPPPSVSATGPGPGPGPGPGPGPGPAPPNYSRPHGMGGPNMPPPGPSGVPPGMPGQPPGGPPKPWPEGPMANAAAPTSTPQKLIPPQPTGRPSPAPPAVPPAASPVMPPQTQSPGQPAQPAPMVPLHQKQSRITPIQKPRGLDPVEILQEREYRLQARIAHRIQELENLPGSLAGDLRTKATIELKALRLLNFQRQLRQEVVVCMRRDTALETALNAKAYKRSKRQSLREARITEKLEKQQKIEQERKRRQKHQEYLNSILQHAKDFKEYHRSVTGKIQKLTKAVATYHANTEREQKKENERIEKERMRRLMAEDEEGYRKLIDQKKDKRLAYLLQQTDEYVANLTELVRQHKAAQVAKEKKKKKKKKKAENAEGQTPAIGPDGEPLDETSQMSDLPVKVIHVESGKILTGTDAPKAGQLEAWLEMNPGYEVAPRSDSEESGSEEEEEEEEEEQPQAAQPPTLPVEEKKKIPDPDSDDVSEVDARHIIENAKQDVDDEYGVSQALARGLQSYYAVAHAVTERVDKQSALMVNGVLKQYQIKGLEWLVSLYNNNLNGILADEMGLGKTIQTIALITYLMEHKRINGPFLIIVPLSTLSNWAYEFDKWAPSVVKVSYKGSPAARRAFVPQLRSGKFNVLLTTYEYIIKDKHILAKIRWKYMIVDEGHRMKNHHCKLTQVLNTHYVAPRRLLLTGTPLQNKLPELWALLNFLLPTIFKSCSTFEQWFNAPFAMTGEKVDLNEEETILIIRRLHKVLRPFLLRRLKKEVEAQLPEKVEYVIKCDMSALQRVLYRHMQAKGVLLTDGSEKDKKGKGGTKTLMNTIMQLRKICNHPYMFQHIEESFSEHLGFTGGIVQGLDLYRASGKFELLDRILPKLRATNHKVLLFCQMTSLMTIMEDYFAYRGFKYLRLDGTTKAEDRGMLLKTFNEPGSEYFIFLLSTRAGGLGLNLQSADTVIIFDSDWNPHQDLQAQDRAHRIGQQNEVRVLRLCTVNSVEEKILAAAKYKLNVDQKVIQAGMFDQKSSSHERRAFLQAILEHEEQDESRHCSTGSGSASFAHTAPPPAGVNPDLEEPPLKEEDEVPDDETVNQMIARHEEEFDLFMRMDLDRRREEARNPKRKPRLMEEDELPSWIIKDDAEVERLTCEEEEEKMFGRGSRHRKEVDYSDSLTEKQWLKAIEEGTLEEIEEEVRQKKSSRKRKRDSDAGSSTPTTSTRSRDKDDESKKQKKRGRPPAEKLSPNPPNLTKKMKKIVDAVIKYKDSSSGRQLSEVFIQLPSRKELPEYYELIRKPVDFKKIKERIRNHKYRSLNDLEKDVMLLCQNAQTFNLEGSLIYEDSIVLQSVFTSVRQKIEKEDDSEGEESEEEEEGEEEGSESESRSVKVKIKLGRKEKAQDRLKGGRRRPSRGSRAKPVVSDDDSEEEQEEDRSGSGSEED
- assay text: SMARCA4 Western blot degradation in MV4-11 cells
- Type: cell-based
- assay context: MV4-11, MV4-11 cells, 24 h; read-out: SMARCA4 MSD MV411 degradation 24 h: average Dmax %
measurement type: Dmax

| compound | tested on | Dmax |
| --- | --- | --- |
| C#Cc1ccc(CNC(=O)[C@@H]2C[C@@H](O)CN2C(=O)[C@@H](NC(=O)N2CC3(CC(N4CCC(N5CCC(N6CCc7[nH]c8nnc(-c9ccccc9O)cc8c7[C@H]6C)C5)CC4)C3)C2)C(C)(C)C)cc1 (mixture of isomers) [I-188] | SMARCA4 (Homo sapiens) | < 50% |
| C#Cc1ccc(CNC(=O)[C@@H]2C[C@@H](O)CN2C(=O)[C@@H](NC(=O)N2CC3(CC(N4CCC(N5CCC(N6CCc7[nH]c8nnc(-c9ccccc9O)cc8c7[C@@H]6C)CC5)CC4)C3)C2)C(C)(C)C)c(F)c1 [I-182] | SMARCA4 (Homo sapiens) | 70 to 90% |
| C#Cc1ccc(CNC(=O)[C@@H]2C[C@@H](O)CN2C(=O)[C@@H](NC(=O)CN2CCC(N3CC4(CC(N5CCN6c7cc(-c8ccccc8O)nnc7NC[C@H]6C5)C4)C3)CC2)C(C)(C)C)cc1 [I-252] | SMARCA4 (Homo sapiens) | > 90% |
| C#Cc1ccc([C@H](C)NC(=O)[C@@H]2C[C@@H](O)CN2C(=O)[C@H](c2cc(OCCN3CCC(N4CCC(N5CCC(CN6CCN7c8cc(-c9ccccc9O)nnc8NC[C@H]7C6)CC5)CC4)CC3)no2)C(C)C)cc1 (single isomer, unassigned) [I-333] | SMARCA4 (Homo sapiens) | 70 to 90% |
| C#Cc1ccc(CNC(=O)[C@@H]2C[C@@H](O)CN2C(=O)[C@@H](NC(=O)N2CC3(CC(N4CCC(c5cnc(N6CCc7[nH]c8nnc(-c9ccccc9O)cc8c7[C@@H]6C)nc5)CC4)C3)C2)C(C)(C)C)c(OCCCOC)c1 [I-227] | SMARCA4 (Homo sapiens) | > 90% |

Request: // returns reported Dmax for input Cc1ncsc1-c1ccc(CNC(=O)[C@@H]2C[C@@H](O)CN2C(=O)C(c2cc(OCCN3CCC(N4CCC(c5cnc(N6CCc7[nH]c8nnc(-c9ccccc9O)cc8c7[C@@H]6C)nc5)CC4)CC3)no2)C(C)C)cc1 (single isomer, unassigned) [I-41]
Response: > 90%

Request: // returns reported Dmax for input C#Cc1ccc(CNC(=O)[C@@H]2C[C@@H](O)CN2C(=O)[C@@H](NC(=O)N2CCC[C@H](CN3CCC(N4CCC(N5CCN6c7cc(-c8ccccc8O)nnc7NC[C@H]6C5)CC4)CC3)C2)C(C)(C)C)cc1 [I-256]
Response: < 50%

Request: // returns reported Dmax for input C#Cc1ccc(CNC(=O)[C@@H]2C[C@@H](O)CN2C(=O)[C@H](NC(=O)N2CC3(CC(N4CCC(c5cnc(N6CCc7[nH]c8nnc(-c9ccccc9O)cc8c7[C@H]6C)nc5)CC4)C3)C2)C(C)(C)CCO)c(Cl)c1 (single isomer, unassigned) [I-316]
Response: < 50%
